- Assay Overview: Pharmacokinetic analysis with prodrugs in rats
- Assay type: in vivo, SD rats
- Assay Conditions: male, Sprague-Dawley, rat, plasma; Intravenous Injection into Rats (10 mg/kg); analyte: prodrug
Assay Metric: half-life (min)

Compound: CC(C)c1cccc([C@H](C)C2CC2)c1OCOP(=O)([O-])[O-].[Na+].[Na+] [Compound 52]
Assay Metric: half-life
Reading: 24
//
Compound: CC(C)c1cccc([C@H](C)C2CC2)c1OP(=O)(O)O [Compound 46]
Assay Metric: half-life
Reading: 54

====

- Test system: ICR mice
- Assay Overview: Righting reflex experiment on mice
- Assay Conditions: therapeutic index, LD50/ED50, mice
- Procedure: LD5 (5% lethal dose): dose required to cause 5% of mice to die in a test. If a normal animal was able to immediately turn its body to normal upright position after being pushed over or made lying on its back, such a reflex was determined as the righting reflex. Otherwise, loss of the righting reflex and the time of loss were recorded, and a reflex recovery time was recorded when the animal restored the righting reflex. […]
In this section, each of the compounds is paired with its reported TI.

Compound: COc1cccc(C(C)C2CC2)c1O (stereo not shown) [Compound 8, 2-(1-cyclopropylethyl)-6-methoxy-phenol]
Tested On: ICR mice
TI: 9.1
--
Compound: C[C@H](c1cccc([C@@H](C)C2CC2)c1O)C1CC1 [Compound 20, 2,6-bis[(1S)-1-cyclopropylethyl]phenol]
Tested On: ICR mice
TI: 9.6
--
Compound: CC(C)c1cccc(C(C2CC2)C2CC2)c1O [Compound 11]
Tested On: ICR mice
TI: 3.3
--
Compound: CC(c1cccc(C(C)C2CC2)c1O)C1CC1 (stereo not shown) [Compound 13, 2,6-bis(1-cyclopropylethyl)phenol]
Tested On: ICR mice
TI: 5.5

====

In this section, each of the compounds is paired with its reported AUC(0-t).
- Assay Overview: Pharmacokinetic analysis with prodrugs in rats
- Assay type: in vivo, SD rats
- Assay Conditions: male, Sprague-Dawley, rat, plasma; Intravenous Injection into Rats (10 mg/kg); analyte: prodrug

Compound: CC(C)c1cccc([C@H](C)C2CC2)c1OCOP(=O)([O-])[O-].[Na+].[Na+] [Compound 52]
AUC(0-t), ng·h/mL: 15900
//
Compound: CC(C)c1cccc([C@H](C)C2CC2)c1OP(=O)(O)O [Compound 46]
AUC(0-t), ng·h/mL: 22400

====

- Test system: ICR mice
- Assay Overview: Righting reflex experiment on mice
- Assay Conditions: mice, intravenous injection; loss until recovery of righting reflex
- Protocol: LD5 (5% lethal dose): dose required to cause 5% of mice to die in a test. If a normal animal was able to immediately turn its body to normal upright position after being pushed over or made lying on its back, such a reflex was determined as the righting reflex. Otherwise, loss of the righting reflex and the time of loss were recorded, and a reflex recovery time was recorded when the animal restored the righting reflex. […]

Molecule: CC(C)c1cccc(C(C)C)c1O [Propofol, reference compound]
Anesthesia maintenance time, s: 652.5
//
Molecule: CCC(C)c1cccc(C(C)C2CC2)c1O (stereo not shown)
Anesthesia maintenance time, s: 901.7
//
Molecule: CC(C)c1cccc([C@H](C)C2CCC2)c1O
Anesthesia maintenance time, s: 2235.6
//
Molecule: CC[C@@H](C)c1cccc([C@H](C)C2CC2)c1O
Anesthesia maintenance time, s: 690.0
//
Molecule: CC(C)c1cccc(C(C)C2CC2)c1O (stereo not shown)
Anesthesia maintenance time, s: 660.4
//
Molecule: CC(C)c1cccc(C(C2CC2)C2CC2)c1O
Anesthesia maintenance time, s: 1494.7
//
Molecule: CC(C)c1cccc([C@H](C)C2CC2)c1O
Anesthesia maintenance time, s: 631.9
//
Molecule: C[C@H](c1cccc([C@H](C)C2CC2)c1O)C1CC1
Anesthesia maintenance time, s: 754.4
//
Molecule: CC(c1cccc(C2(C)CC2)c1O)C1CC1 (stereo not shown)
Anesthesia maintenance time, s: 554.9
//
Molecule: CC(c1cccc(C(C)C2CC2)c1O)C1CC1 (stereo not shown)
Anesthesia maintenance time, s: 554.4
//
Molecule: COc1cccc(C(C)C2CC2)c1O (stereo not shown)
Anesthesia maintenance time, s: 394.8
//
Molecule: CC[C@@H](C)c1cccc([C@@H](C)C2CC2)c1O
Anesthesia maintenance time, s: 1149.5
//
Molecule: CC[C@H](C)c1cccc([C@H](C)C2CC2)c1O
Anesthesia maintenance time, s: 1048.0
//
Molecule: CC[C@H](C)c1cccc([C@@H](C)C2CC2)c1O
Anesthesia maintenance time, s: 885.9
//
Molecule: C[C@@H](c1cccc([C@H](C)C2CC2)c1O)C1CC1 [Compound 18, 2,6-bis[(1R)-1-cyclopropylethyl]phenol]
Anesthesia maintenance time, s: 1031.6
//
Molecule: C[C@H](c1cccc([C@@H](C)C2CC2)c1O)C1CC1 [Compound 20, 2,6-bis[(1S)-1-cyclopropylethyl]phenol]
Anesthesia maintenance time, s: 1207.7
//
Molecule: CC(C)c1cccc(C(C)C2CCC2)c1O (stereo not shown)
Anesthesia maintenance time, s: 958.0
//
Molecule: CC(c1cccc(C2CC2)c1O)C1CC1 (stereo not shown)
Anesthesia maintenance time, s: 1669.5
//
Molecule: CC(C)c1cccc([C@@H](C)C2CCC2)c1O
Anesthesia maintenance time, s: 485.8

====

- System: ICR mice
- Assay Overview: Righting reflex experiment on mice with prodrugs
- Type: in vivo
- Assay Conditions: therapeutic index, LD50/ED50, mice, prodrugs
Counter-ions that a name gives are not always drawn.

Compound: C[C@H](c1cccc([C@H](C)C2CC2)c1OCOP(=O)(O)O)C1CC1 [Compound 76, phosphate]
Tested On: ICR mice
TI: 4.0
//
Compound: CC(C)C[C@H](N)C(=O)OCOc1c(C(C)C)cccc1[C@H](C)C1CC1 [Compound 60, trifluoroacetate]
Tested On: ICR mice
TI: 5.8
//
Compound: CC(C)c1cccc([C@H](C)C2CC2)c1OCOC(=O)c1cccnc1
Tested On: ICR mice
TI: 2.8
//
Compound: C[C@H](c1cccc([C@@H](C)C2CC2)c1OCOP(=O)(O)O)C1CC1 [Compound 77, phosphate]
Tested On: ICR mice
TI: 2.9
//
Compound: CC(C)c1cccc([C@H](C)C2CC2)c1OP(=O)(O)O
Tested On: ICR mice
TI: 3.1
//
Compound: CC(C)c1cccc([C@H](C)C2CC2)c1OCOC(=O)C(NC(=O)OC(C)(C)C)C(C)C (stereo in doubt)
Tested On: ICR mice
TI: 3.3

====

- Test system: ICR mice
- Assay Overview: Righting reflex experiment on mice
- Assay Conditions: Mus musculus, iv
Assay Metric: ED50 (mg/kg)

Molecule: CC(C)c1cccc(C(C)C2CC2)c1O (centres unmarked)
Assay Metric: ED50
Reading: 3.7

Molecule: CCC(C)c1cccc(C(C)C2CC2)c1O (centres unmarked)
Assay Metric: ED50
Reading: 4.5

Molecule: CC(c1cccc(C2CC2)c1O)C1CC1 (centres unmarked)
Assay Metric: ED50
Reading: 14.5

Molecule: CC(C)c1cccc([C@H](C)C2CCC2)c1O
Assay Metric: ED50
Reading: 6.6

Molecule: CC[C@H](C)c1cccc([C@@H](C)C2CC2)c1O
Assay Metric: ED50
Reading: 5.3

Molecule: CC(C)c1cccc(C(C)C)c1O [Propofol, reference compound]
Assay Metric: ED50
Reading: 11.7

Molecule: CC[C@@H](C)c1cccc([C@H](C)C2CC2)c1O
Assay Metric: ED50
Reading: 1.3

Molecule: CC[C@@H](C)c1cccc([C@@H](C)C2CC2)c1O
Assay Metric: ED50
Reading: 10.1

====

- Assay Overview: Pharmacokinetic experiment on rats
- Format: in vivo, SD rats
- Assay Conditions: male, Sprague-Dawley, rat, plasma; Intravenous Injection into Rats (1 mg/kg)
Is AUC(0-t) at least 100 ng·h/mL? Then Satisfied. If not, Not satisfied.

Compound: CC(C)c1cccc(C(C)C)c1O [Propofol, reference compound]
Category: Not satisfied
//
Compound: CC[C@H](C)c1cccc([C@H](C)C2CC2)c1O [Compound 25]
Category: Not satisfied
//
Compound: CC[C@@H](C)c1cccc([C@@H](C)C2CC2)c1O [Compound 29]
Category: Satisfied
//
Compound: CC(c1cccc(C(C)C2CC2)c1O)C1CC1 (centres unmarked) [Compound 13, 2,6-bis(1-cyclopropylethyl)phenol]
Category: Satisfied
//
Compound: COc1cccc(C(C)C2CC2)c1O (centres unmarked) [Compound 8, 2-(1-cyclopropylethyl)-6-methoxy-phenol]
Category: Satisfied

====

In this section, each of the compounds is paired with its reported TI.
- Tested on: ICR mice
- Assay Overview: Righting reflex experiment on mice
- Assay Conditions: therapeutic index, LD50/ED50, mice

Compound: C[C@H](c1cccc([C@H](C)C2CC2)c1O)C1CC1 [Compound 19]
TI: 4.1

Compound: CC(C)c1cccc([C@H](C)C2CCC2)c1O [Compound 14]
TI: 5.8

Compound: CCC(C)c1cccc(C(C)C2CC2)c1O (stereo not drawn) [Compound 4, 2-sec-butyl-6-(1-cyclopropylethyl)phenol]
TI: 8.4
